assay: NCI Yeast Anticancer Drug Screen. Data for the sgs1 mgt1 strain (AID 161);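 further: 0% = growth of cultures given vehicle only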; conditions: S. cerevisiae sgs1 mgt1 strain, at 50.0 µM, active compounds read high
Compounds without any hit were thinned out: in the full panel of roughly 79,000, 15% have a hit.
Overview of recorded growth inhibition for various compounds
Give your result in % as a bare value.

Field: example entries. Status: answers known.
{"compound": "COc1ccc(C(Br)C(Br)C(=O)C(C)(C)C)cc1 (configuration not stated)", "growth inhibition / %": 6.2}
{"compound": "COc1cc(-c2nnc3n2NC=C(C(=O)O)S3)cc(OC)c1OC", "growth inhibition / %": -10.9}
{"compound": "CCOC(=O)C/C(C(=O)O)=C(\\C)c1ccc2ccccc2c1", "growth inhibition / %": 20.9}
{"compound": "COc1ccccc1C(c1ccccc1OC)c1ccccc1C(=O)O", "growth inhibition / %": 5.75}
{"compound": "CN/N=C(/CC(=O)c1sc(NNC(C)=O)nc1C)C(=O)Nc1ccc(OC)cc1OC", "growth inhibition / %": 3.2}
{"compound": "NC(=O)CCC(Nc1c2ccccc2nc2ccccc12)C(=O)O (configuration not stated)", "growth inhibition / %": 15.7}
{"compound": "Cc1ccc(N=Nc2ccc(O)c(CN(C)C)c2)cc1C", "growth inhibition / %": 48.5}
{"compound": "Cn1cnc(CC(=O)O)c1", "growth inhibition / %": -12.5}
{"compound": "CC(=O)c1ccc(I)cc1", "growth inhibition / %": 24.6}
{"compound": "O=[N+]([O-])c1ccc(Nc2ccccc2)c([N+](=O)[O-])c1", "growth inhibition / %": -1.4}

compound `C#CC1(O)CCCCCCCCC2(CCCCCCCC1)OCCO2` , growth inhibition observed: -18.2

compound `Clc1ccc2nc(/C=C/c3ccccc3)ccc2c1` , growth inhibition observed: -9.4

* * *

Assay: NCI Yeast Anticancer Drug Screen. Data for the mec2-1 strain (AID 157)
Details: S. cerevisiae mec2-1 strain, at 50.0 µM
Procedure: Growth inhibition of yeast strains with defined genetic alterations is measured as a screen for potential anti-cancer activity. Selected strains with alterations in DNA damage repair or cell cycle control were exposed to compounds and growth inhibition was measured relative to vehicle treated controls. The strain used in this assay is mec2-1
About 79,000 compounds went through this panel and 15% of them were active in at least one assay; those are over-represented in the sample as a whole. Active and inactive are the calls of the source. No stated cut-off is given here; in the data, active means growth inhibition above about 70%; inactive means the rest.
Just give me one of these, please: T (active), F (inactive)

{"compound": "COC(=O)c1ccccc1C1CN=NC12Cc1c(C)ccc(C)c1C2=O (stereo unspecified)", "answer label": "F"}

Here is another compound to look at.
Record lookup: outcome of this test for `CCCCNC(=O)c1ccc(C(C)C)cc1` ?
F

* * *

Overview of recorded growth inhibition for various molecules
assay: NCI Yeast Anticancer Drug Screen. Data for the mec2-1 strain (AID 157); conditions: S. cerevisiae mec2-1 strain, at 50.0 µM, active compounds read high
About 79,000 compounds went through this panel and 15% of them were active in at least one assay; those are over-represented in the sample as a whole. Activity calls are given as the source filed them. Cut-off read from the data, not from the text of the source: active = growth inhibition above about 70%; inactive = the rest.

Field: example entries. Status: answers known.
{"molecule": "Fc1ccc(-c2ccc(Br)cc2)cc1", "growth inhibition": "3.4% (inactive)"}
{"molecule": "CCC1=C(C)C(=O)OC1n1ccc(=O)[nH]c1=O (stereo unspecified)", "growth inhibition": "-2.75% (inactive)"}

molecule `O=C1NC(=NC2CCCCC2)C2(CCN(CCCC3(c4ccc(F)cc4)OCCO3)CC2)N1c1ccccc1` , growth inhibition observed: -17.2% (inactive)

molecule `CC1=C2N3C[C@@H](n4c(=O)n(C)c(=O)n43)C23CCC1n1c(=O)n(C)c(=O)n13` , growth inhibition observed: -0.85% (inactive)

molecule `Cc1nc(N)nc2c1CCC(=O)N2` , growth inhibition observed: 7.6% (inactive)

molecule `O=C1O/C(=C(/Cl)c2cccc3ccccc23)c2ccccc21` , growth inhibition observed: -67.8% (inactive)

* * *

assay: NCI Yeast Anticancer Drug Screen. Data for the mlh1 rad18 strain (AID 175); conditions: S. cerevisiae mlh1 rad18 strain growth inhibition; at 50.0 µM
The panel holds about 79,000 compounds, 15% with a hit somewhere; the sample as a whole holds those more often. Activity calls are given as the source filed them. Cut-off read from the data, not from the text of the source: active = growth inhibition above about 70%; inactive = the rest.
Just give me one of these, please: True (active), False (inactive)

# example entries with known answers
{"compound": "CC12CCC(/C(=C/N3CCCCC3)C1=O)C2(C)C (stereo not drawn)", "answer label": "False"}
{"compound": "O=C(C[n+]1ccccc1-c1ccccn1)c1ccc(-c2ccccc2)cc1", "answer label": "False"}
{"compound": "CCOC(=O)C1=C(Nc2ccc(F)cc2)C(=O)N(C(C)(C)C)C1", "answer label": "False"}
{"compound": "O=C(Oc1ccccc1)Oc1c(Cl)cc([N+](=O)[O-])cc1[N+](=O)[O-]", "answer label": "False"}
{"compound": "CC(C)(C)c1cc(CCC(=O)Nc2ccc(Cl)cc2)[nH]c(=S)n1", "answer label": "False"}

Record lookup: outcome of this test for `Nc1ccc(C(=O)NO)c(O)c1` ?
False

Record lookup: outcome of this test for CC1(C)CC2=C(SC3C=CC=CC3N2)C(=O)C1C(=O)C(N)=O (stereo not drawn) ?
False

Record lookup: outcome of this test for Cc1c(C)c(O)c2c(c1C)C(C)C(=O)OC2=O (stereo not drawn) ?
False

Record lookup: outcome of this test for `CN1CCOc2c1cnn(CCO)c2=O` ?
False

Record lookup: outcome of this test for `O=Cc1[nH]c(=S)[nH]c(=O)c1Cc1cccc(Cl)c1` ?
True

Record lookup: outcome of this test for `C[C@@]1(CO)CCc2c(c3ccccc3oc2=O)O1` ?
False

Record lookup: outcome of this test for `C1=CC(=NN=P(c2ccccc2)(c2ccccc2)c2ccccc2)C=C1` ?
False

* * *

test: NCI Yeast Anticancer Drug Screen. Data for the mec2-1 strain (AID 157); details: S. cerevisiae mec2-1 strain, at 50.0 µM, active compounds read high
The panel holds about 79,000 compounds, 15% with a hit somewhere; the sample as a whole holds those more often. The source made the active and inactive calls. Cut-off read from the data, not from the text of the source: active = growth inhibition above about 70%; inactive = the rest. Where a SMILES comes first, the peptide text is derived from it. [ ]: non-standard residue; d: D form. Hpg = N[CH](C(=O)O)c1ccc(O)cc1
observable: growth inhibition

compound CC(O)COc1ccc(OCc2ccccc2)cc1 (configuration not stated) , growth inhibition observed: 34.6% (inactive)

compound `CCCNC(=S)N/N=C\C(C)=N\Nc1ccc(Cl)cc1` , growth inhibition observed: 16.2% (inactive)

compound `C=CC[N+](CCO)(CCO)CCCCCCCCCCCCCCCCCC` , growth inhibition observed: 99% (active)

compound `CC(C)(C)c1ccc(O)c(C(c2cc(C(C)(C)C)ccc2O)c2cc(C(C)(C)C)ccc2O)c1` , growth inhibition observed: 98.7% (active)

compound `O=S(=O)(CCc1ccccc1)c1nc2ccccc2s1` , growth inhibition observed: -1.85% (inactive)

compound CC(C)CC(N)C(=O)NC(C(=O)O)c1ccc(O)cc1 (configuration not stated) (H-Leu-[Hpg]-OH; configuration not given here) , growth inhibition observed: -10.1% (inactive)

compound Cc1cccc(C(=O)C(O)c2cccc(C)n2)n1 (configuration not stated) , growth inhibition observed: -18.4% (inactive)

* * *

experiment: NCI Yeast Anticancer Drug Screen. Data for the cln2 rad14 strain (AID 165);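 further: 0% = growth equal to vehicle treated cultures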; conditions: S. cerevisiae cln2 rad14 strain, at 50.0 µM, active compounds read high
About 79,000 compounds went through this panel and 15% of them were active in at least one assay; those are over-represented in the sample as a whole.
Overview of recorded growth inhibition for various compounds
Give your result in % as a bare value.

{"compound": "CC1(C(=O)N2c3ccccc3C=CC2C#N)CC2C=CC1C2 (configuration not stated)", "observable": "growth inhibition", "unit tag": "%", "result number": 7.6}
{"compound": "COc1ccc(OC)c(C(=O)C=C(C(F)(F)F)C(F)(F)F)c1", "observable": "growth inhibition", "unit tag": "%", "result number": -41.6}
{"compound": "COC(=O)C1C(=O)C=C(O)C2CCCCC21 (configuration not stated)", "observable": "growth inhibition", "unit tag": "%", "result number": -63}
{"compound": "CCCN1c2c3c(O)c4c(O)c(C)c5c(c4c2O)C(=O)C(C)(O/C=C/C(OC)C(C)C(OC(C)=O)C(C)C(O)C(C)C(O)C(C)/C=C/C=C(/C)C(=O)N3C1C)O5 (configuration not stated)", "observable": "growth inhibition", "unit tag": "%", "result number": 37.2}
{"compound": "CCCCC(C(C)=O)C(=O)CC (configuration not stated)", "observable": "growth inhibition", "unit tag": "%", "result number": -23.2}
{"compound": "C=C(C(=O)O)C1CC[C@@]2(C)CC(O)CC(=C)C2C1 (some centres not stated)", "observable": "growth inhibition", "unit tag": "%", "result number": 5.3}

compound `Oc1ccc(Cl)c2cccnc12` , growth inhibition observed: 97.8

compound COc1ccc(C[C@H](N)C(=O)NC2C(CO)OC(n3cnc4c(N(C)C)ncnc43)C2O)cc1 (some centres not stated) , growth inhibition observed: -0.8

compound `CC(=O)Nc1cc(NC(C)=O)c(N=O)c(NC(C)=O)n1` , growth inhibition observed: -3.45

compound `CN(Cc1ccccc1)C(=O)Nc1ccc(F)c([N+](=O)[O-])c1` , growth inhibition observed: -4.2

compound `CC(C)(C)NNC(=O)/C(=C/c1ccc([N+](=O)[O-])cc1)NC(=O)c1ccccc1` , growth inhibition observed: 5.2

compound CC(c1ccccc1)N1OC1(c1ccccc1)c1ccccc1 (configuration not stated) , growth inhibition observed: 22.9

compound O=CC(Cc1ccccc1)C(=O)CCc1ccccc1.[Cu+2] (configuration not stated) , growth inhibition observed: -48.6

compound `CC(=O)Nc1ccccc1C(C)=O` , growth inhibition observed: 10

compound `CC(=O)O[C@@H]1[C@H]2[C@@H](OC(=O)c3ccccc3)[C@@H](C)C[C@]2(O)[C@H](OC(C)=O)[C@@]2(C)[C@@H]3C[C@@](C)(OC(C)=O)C[C@@H](OC(C)=O)[C@@]3(OC(C)=O)C[C@@]12C` , growth inhibition observed: -32.8

compound `CCOC(=O)/C(O)=C(/C=NC(=S)c1ccncc1)C(=O)OCC` , growth inhibition observed: -6.45

compound `CCn1nc(C)c2c1C(=O)NCC(=O)N2` , growth inhibition observed: -10.4

compound `CCCCC/C(C)=C\C(=O)O` , growth inhibition observed: -14.2

compound O=C1/C(=C/C=C/c2ccccc2)CCC1CNc1ccc(Br)cc1 (configuration not stated) , growth inhibition observed: 16.9

compound `O=C(/C(=N\Nc1ccc([N+](=O)[O-])cc1[N+](=O)[O-])c1ccccc1)c1ccccc1` , growth inhibition observed: -20.8

compound `CNc1ccc(/C=C/c2ccnc3ccccc23)cc1` , growth inhibition observed: 27.6

compound `COc1cccc(C(=O)O)c1[N+](=O)[O-]` , growth inhibition observed: -46.1

Data origin: PubChem BioAssay (NCI)
